Reported values of growth inhibition for individual entries
# test.details: NCI Yeast Anticancer Drug Screen. Data for the rad50 strain (AID 155);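 further: 0% = growth of vehicle-only cultures of the same strain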
# test.parameters: S. cerevisiae rad50 strain growth inhibition; at 50.0 µM; active compounds read high
# Procedure: Growth inhibition of yeast strains with defined genetic alterations is measured as a screen for potential anti-cancer activity. Selected strains with alterations in DNA damage repair or cell cycle control were exposed to compounds and growth inhibition was measured relative to vehicle treated controls. The strain used in this assay is rad50
About 79,000 compounds went through this panel and 15% of them were active in at least one assay; those are over-represented in the sample as a whole.

compound: Nc1cc(Cl)c([N+](=O)[O-])cc1O
endpoint.unit: %
growth inhibition: 6.2
//
compound: CN(C)Cc1[nH]c2ccccc2c1Sc1ccccc1
endpoint.unit: %
growth inhibition: 0.85
//
compound: CCOC(=O)C1SCSCC1=O (configuration not stated)
endpoint.unit: %
growth inhibition: -1.1
//
compound: CC(C#N)(CCl)OS(=O)(=O)CCCl (configuration not stated)
endpoint.unit: %
growth inhibition: 37.4
//
compound: O=C1C(=O)c2ccccc2C(O)=C1CCCc1ccc(S(=O)(=O)c2ccccc2)cc1
endpoint.unit: %
growth inhibition: 2.35
//
compound: O=C(Nc1ccccc1)OCc1cnc2ccccc2c1
endpoint.unit: %
growth inhibition: 6.05
//
compound: COc1cc2c(cc1OC)C(c1ccccc1[N+](=O)[O-])=NCC2
endpoint.unit: %
growth inhibition: 0.2
//
compound: CCOC(=O)CNC=O
endpoint.unit: %
growth inhibition: 33.5
//
compound: CC1=C(CCC(C)CO)OC2CC3C4CC=C5CC(O)CCC5(C)C4CCC3(C)C12 (configuration not stated)
endpoint.unit: %
growth inhibition: 19.1
//
compound: NC(CSS(=O)(=O)O)C(=O)O (configuration not stated)
endpoint.unit: %
growth inhibition: 3.05
//
compound: CC(N)C(=O)NC(C(=O)NC1C(O)OC(CO)C(O)C1O)C(C)C (configuration not stated)
endpoint.unit: %
growth inhibition: 6.1
//
compound: O=[N+]([O-])/C(Cl)=C(\NCCO)C(Cl)=C(Cl)Cl
endpoint.unit: %
growth inhibition: 15.6
